Molecular target: DQB1*05:01
Experiment: Peptide binding to HLA-DQ allele, competition assay
measured_parameter: IC50 (nM)
Output spec: scalar in nM, unitless text.

Examples with answers:
>  <compound>
CC[C@H](C)[C@H](NC(=O)[C@H](CC(C)C)NC(=O)[C@H](Cc1ccc(O)cc1)NC(=O)[C@@H](NC(=O)[C@H](Cc1ccccc1)NC(=O)[C@@H](N)CCCCN)[C@@H](C)O)C(=O)N[C@@H](CC(N)=O)C(=O)N[C@@H](Cc1ccc(O)cc1)C(=O)N[C@H](C(=O)N[C@@H](CCC(N)=O)C(=O)N[C@@H](CC(=O)O)C(=O)N[C@@H](CCC(=O)O)C(=O)N[C@H](C(=O)N[C@@H](CC(N)=O)C(=O)N[C@H](C(=O)O)[C@@H](C)O)[C@@H](C)CC)[C@@H](C)CC [Peptide 3563.0025]

>  <measured_parameter>
IC50

>  <value>
13

$$$$
>  <compound>
CSCC[C@H](NC(=O)[C@H](CC(C)C)NC(=O)[C@H](Cc1ccc(O)cc1)NC(=O)[C@H](C)NC(=O)[C@H](C)NC(=O)[C@H](CC(C)C)NC(=O)[C@H](CCCNC(=N)N)NC(=O)[C@H](CCCCN)NC(=O)[C@@H](N)CC(=O)O)C(=O)N[C@@H](CC(C)C)C(=O)N[C@@H](CCSC)C(=O)N[C@@H](CCCNC(=N)N)C(=O)N[C@@H](CO)C(=O)N1CCC[C@H]1C(=O)N[C@@H](CO)C(=O)O [Peptide 3563.0004]

>  <measured_parameter>
IC50

>  <value>
53

$$$$
>  <compound>
CC(C)C[C@H](NC(=O)CNC(=O)[C@@H](N)CCCNC(=N)N)C(=O)N[C@@H](CCCCN)C(=O)N[C@@H](CC(C)C)C(=O)N[C@@H](C)C(=O)N[C@H](C(=O)N[C@@H](C)C(=O)N[C@@H](CC(C)C)C(=O)N[C@@H](CO)C(=O)N[C@@H](CC(C)C)C(=O)N[C@@H](CO)C(=O)N[C@@H](CC(N)=O)C(=O)N[C@@H](CCCCN)C(=O)N[C@@H](Cc1ccccc1)C(=O)O)[C@@H](C)O [Peptide 3563.0020]

>  <measured_parameter>
IC50

>  <value>
2630

$$$$
>  <compound>
CC[C@H](C)[C@H](NC(=O)[C@H](CO)NC(=O)[C@H](Cc1ccc(O)cc1)NC(=O)[C@H](CC(C)C)NC(=O)[C@H](CCCCN)NC(=O)CN)C(=O)N[C@@H](CC(C)C)C(=O)N[C@@H](CCCCN)C(=O)N[C@H](C(=O)N[C@@H](CCC(N)=O)C(=O)N[C@@H](CO)C(=O)N1CCC[C@H]1C(=O)N[C@@H](CC(C)C)C(=O)N[C@@H](Cc1ccccc1)C(=O)N[C@H](C(=O)O)[C@@H](C)O)[C@@H](C)CC [Peptide 3563.0016]

>  <measured_parameter>
IC50

>  <value>
6000

$$$$

Per the records, this compound ( CC[C@H](C)[C@H](NC(=O)[C@H](CCC(=O)O)NC(=O)[C@H](CC(=O)O)NC(=O)[C@@H](NC(=O)[C@@H](NC(=O)[C@H](CC(N)=O)NC(=O)[C@H](C)NC(=O)[C@@H](NC(=O)[C@H](C)NC(=O)[C@@H](NC(=O)[C@H](CCCCN)NC(=O)[C@H](CC(C)C)NC(=O)[C@H](CC(=O)O)NC(=O)[C@H](Cc1c[nH]cn1)NC(=O)[C@@H](N)CC(C)C)[C@@H](C)CC)[C@@H](C)CC)[C@@H](C)CC)[C@@H](C)CC)C(=O)O [Peptide 3563.0013] ) has IC50 equal to 691

---

Target: DPB1*04:01 (Homo sapiens)
Sequence (P04440 30-258): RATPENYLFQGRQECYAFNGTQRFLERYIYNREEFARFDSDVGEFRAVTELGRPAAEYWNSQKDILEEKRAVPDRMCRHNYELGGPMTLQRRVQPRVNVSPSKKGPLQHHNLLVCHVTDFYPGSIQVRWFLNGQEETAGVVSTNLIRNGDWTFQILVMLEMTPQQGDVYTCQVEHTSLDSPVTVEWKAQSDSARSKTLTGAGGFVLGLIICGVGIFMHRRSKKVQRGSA
Sequence (P20036 29-260 partner): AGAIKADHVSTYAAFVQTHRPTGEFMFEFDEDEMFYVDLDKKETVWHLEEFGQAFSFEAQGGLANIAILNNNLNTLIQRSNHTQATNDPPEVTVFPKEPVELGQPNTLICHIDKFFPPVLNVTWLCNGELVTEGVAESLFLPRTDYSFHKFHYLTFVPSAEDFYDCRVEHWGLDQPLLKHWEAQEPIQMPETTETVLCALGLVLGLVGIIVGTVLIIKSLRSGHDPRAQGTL
Parameter IC50: see the listing below.
Output spec: scalar in nM, unitless text.

Examples with answers:
>  <compound>
CC(C)C[C@H](NC(=O)[C@H](C)NC(=O)[C@H](Cc1ccccc1)NC(=O)[C@H](CO)NC(=O)[C@H](CO)NC(=O)[C@@H](NC(=O)[C@H](CCCNC(=N)N)NC(=O)[C@H](CC(C)C)NC(=O)[C@H](CCCCN)NC(=O)[C@H](CCCCN)NC(=O)[C@@H](N)Cc1ccc(O)cc1)[C@@H](C)O)C(=O)N[C@@H](CC(N)=O)C(=O)N[C@@H](CC(C)C)C(=O)N1CCC[C@H]1C(=O)N[C@H](C(=O)O)[C@@H](C)O [Peptide 3563.0022]

>  <system_name>
DPB1*04:01 (Homo sapiens)

>  <measured_parameter>
IC50

>  <value>
2.1

$$$$
>  <compound>
CC[C@H](C)[C@H](NC(=O)[C@H](CC(C)C)NC(=O)[C@H](CC(N)=O)NC(=O)[C@@H](NC(=O)[C@@H](NC(=O)[C@H](Cc1ccccc1)NC(=O)[C@H](Cc1c[nH]cn1)NC(=O)[C@H](CCCCN)NC(=O)[C@@H](NC(=O)[C@@H](N)Cc1c[nH]cn1)C(C)C)C(C)C)[C@@H](C)CC)C(=O)NCC(=O)N[C@@H](CC(=O)O)C(=O)N[C@@H](Cc1ccccc1)C(=O)N[C@@H](CCC(=O)O)C(=O)N[C@H](C(=O)O)C(C)C [Peptide 3563.0014]

>  <system_name>
DPB1*04:01 (Homo sapiens)

>  <measured_parameter>
IC50

>  <value>
7

$$$$

As a next step, examine the compound that follows.
Per the records, this compound ( CC[C@H](C)[C@H](NC(=O)[C@H](CO)NC(=O)[C@H](Cc1ccc(O)cc1)NC(=O)[C@H](CC(C)C)NC(=O)[C@H](CCCCN)NC(=O)CN)C(=O)N[C@@H](CC(C)C)C(=O)N[C@@H](CCCCN)C(=O)N[C@H](C(=O)N[C@@H](CCC(N)=O)C(=O)N[C@@H](CO)C(=O)N1CCC[C@H]1C(=O)N[C@@H](CC(C)C)C(=O)N[C@@H](Cc1ccccc1)C(=O)N[C@H](C(=O)O)[C@@H](C)O)[C@@H](C)CC [Peptide 3563.0016] ) has IC50 equal to 2100
